I'd be grateful if you could share measured Plant response rating, Corn for these entries.
Test system: corn (Zea mays)
Assay: Test B postemergence
Type: in vivo
Settings: Rate 500 g/ha, scale 0 (no effect) to 100 (complete control), 13 to 15 days
Method: […] At the same time, plants selected from these crop and weed species and also blackgrass (Alopecurus myosuroides), wheat (Triticum aestivum) and wild oat (Avena fatua) were treated with postemergence applications of test chemicals formulated in the same manner. […] Treated plants and controls were maintained in a greenhouse for 13 to 15 days, after which time all species were compared to controls and visually evaluated. […]
One number for each entry.

Worked cases, answers included:
Cc1ccnc(N2CCC(n3ccc(C(C)(C)C)n3)C2=O)c1 (stereo not shown) :: 0
CC(C)(C)c1ccn(C2CCN(c3ccc(F)c(C(F)(F)F)c3)C2=O)n1 (stereo not shown) :: 0
CCC(C)c1ccn(C2CCN(c3ccc(Br)c(OC)c3)C2=O)n1 (stereo not shown) :: 30

Moving on to another molecule below.
For the record CCC(C)c1ccn(C2CCN(c3ccc(F)c(C(F)(F)F)c3)C2=O)n1 (stereo not shown) , what value of Plant response rating, Corn is listed for corn (Zea mays)?
0

----------
Tested on: pigweed (Amaranthus retroflexus)
Assay: Test B postemergence
Format: in vivo
Settings: Rate 125 g/ha, scale 0 (no effect) to 100 (complete control), 13 to 15 days
One threshold, 30, splits the recorded Plant response rating, Pigweed values: lower ones are Yes, equal or higher ones are No.

Cc1cc(N2CCC(n3ccc(C(C)(C)C)n3)C2=O)ccc1Cl (stereo not drawn) :: No
O=C1C(n2ccc(C3CCC3)n2)SCN1c1cccc(C(F)(F)F)c1 (stereo not drawn) :: Yes
CC(C)(C)c1ccn(C2CCN(c3cccc(Cl)c3)C2=O)n1 (stereo not drawn) :: No

Please check: Plant response rating, Pigweed for CC(C)(C)c1ccn(C2CCN(c3cccc(OC(F)(F)C(F)F)c3)C2=O)n1 (stereo not drawn) , strictly under 30 or not?
Yes

Given the entry CC(C)(C)c1ccn(C2CCN(c3cccc(C(F)(F)F)c3)C2=O)n1 (stereo not drawn) , would its reported Plant response rating, Pigweed be below 30?
No

----------
Tested on: cocklebur (Xanthium strumarium)
Test: Test C preemergence
Assay type: in vivo
Conditions: preemergence, Rate 500 g/ha, visual evaluation after 12 to 14 days
VALUE TYPE: Plant response rating (0 to 100), Cocklebur

Look over these answered cases.
CCC(CC)c1ccn(C2CCN(c3ccc(Br)c(OC)c3)C2=O)n1 (stereo not drawn) :: 55
Cc1ccc(N2CCC(n3ccc(C(C)(C)C)n3)C2=O)cc1OC(F)F (stereo not drawn) :: 30
CCCOc1cc(N2CCC(n3ccc(C(C)(C)C)n3)C2=O)ccc1C (stereo not drawn) :: 0
CCC(CC)c1ccn(C2CCN(c3ccc(F)c(C(F)(F)F)c3)C2=O)n1 (stereo not drawn) :: 60
CCC(C)c1ccn(C2CCN(c3cccc(OC)c3)C2=O)n1 (stereo not drawn) :: 0

Could you tell me Plant response rating (0 to 100), Cocklebur for each of these molecules? They are listed below.
1. CC1(c2ccn(C3OCN(c4cccc(C(F)(F)F)c4)C3=O)n2)CC1 (stereo not drawn)
2. COc1cc(N2CCC(n3ccc(C(C)C)n3)C2=O)ccc1Cl (stereo not drawn)
3. CCOc1cccc(N2CCC(n3ccc(C(C)C)n3)C2=O)c1 (stereo not drawn)
4. CCC(C)c1ccn(C2CCN(c3ccc(F)c(C(F)(F)F)c3)C2=O)n1 (stereo not drawn)

1: 0; 2: 30; 3: 70; 4: 60

----------
System: pigweed (Amaranthus retroflexus)
Experiment: Test B preemergence
Assay type: in vivo
Details: Preemergence, Rate 500 g/ha; scale 0 to 100, 0 no effect, 100 complete control
VALUE TYPE: Plant response rating, Pigweed
Give bare numbers.

Cc1ccn(C2CCN(c3cccc(C(F)(F)F)c3)C2=O)n1 (stereo not drawn) [Compound 16] :: 0
CC(C)(C)c1ccn(C2CCN(c3cccc(C(F)(F)F)c3)C2=S)n1 (stereo not drawn) [Compound 22] :: 100
CC(C)Oc1cccc(N2CCC(n3ccc(C(C)C)n3)C2=O)c1 (stereo not drawn) [Compound 82] :: 100
CCC(CC)c1ccn(C2OCN(c3cccc(OC(F)F)c3)C2=O)n1 (stereo not drawn) [Compound 131] :: 100
CCC(C)c1nn(C2CCN(c3cccc(C(F)(F)F)c3)C2=O)cc1Cl (stereo not drawn) [Compound 13] :: 0

I'm hoping you can list Plant response rating, Pigweed for every compound here, please.
1. O=C1C(n2ccc(C3CCCCC3)n2)OCN1c1cccc(C(F)(F)F)c1 (stereo not drawn) [Compound 51]
2. CC(C)(C)c1ccn(C2CCN(c3cccc(OC(F)(F)C(F)F)c3)C2=O)n1 (stereo not drawn) [Compound 48]
3. O=C1C(n2ccc(C3CCC3)n2)SCN1c1cccc(OC(F)F)c1 (stereo not drawn) [Compound 45]
4. Cc1cc(N2CCC(n3ccc(C(C)(C)C)n3)C2=O)ccc1Cl (stereo not drawn) [Compound 53]

1. 100
2. 0
3. 100
4. 100

----------
System: common ragweed (Ambrosia elatior)
Experiment: Test C preemergence
Assay type: in vivo
Conditions: preemergence, Rate 250 g/ha, visual evaluation after 12 to 14 days
Text: […]
Everything with Plant response rating (0 to 100), Ragweed, Common lower than 40 is 0 (no); everything else, including exactly 40, is 1 (yes).

Worked examples follow.
CC(C)(C)c1ccn(C2CCN(c3ccc(Cl)c(Cl)c3)C2=O)n1 (centres unmarked) [Compound 34] :: 0 (no)
CC(C)(C)c1ccn(C2CCN(c3cccc(OC(F)(F)F)c3)C2=O)n1 (centres unmarked) [Compound 49] :: 0 (no)
CC(C)c1ccn(C2SCN(c3cccc(OC(F)(F)F)c3)C2=O)n1 (centres unmarked) [Compound 31] :: 1 (yes)

With those in mind, consider the next compound.
Can CC(C)c1ccn(C2SCN(c3cccc(OC(F)F)c3)C2=O)n1 (centres unmarked) [Compound 44] be said to have Plant response rating (0 to 100), Ragweed, Common at or above 40?
1 (yes)

----------
System: corn (Zea mays)
Experiment: Test B postemergence
Type: in vivo
Settings: Rate 500 g/ha, scale 0 to 100, 0 is no effect, 100 is complete control, 13 to 15 days
VALUE TYPE: Plant response rating, Corn
One number for each entry.

Worked examples, 5 compounds total:
CCC(C)c1ccn(C2SCN(c3cccc(C(F)(F)F)c3)C2=O)n1 (stereo not drawn) :: 20
CC(C)(C)c1ccn(C2CCN(c3ccc4c(c3)CCC4)C2=O)n1 (stereo not drawn) :: 0
CC1CCc2cn(C3CCN(c4cccc(C(F)(F)F)c4)C3=O)nc21 (stereo not drawn) :: 0
O=C1C(n2ccc(C3CCC3)n2)SCN1c1cccc(OC(F)F)c1 (stereo not drawn) :: 0
CC(C)(C)c1ccn(C2CCN(c3cccc(I)c3)C2=O)n1 (stereo not drawn) :: 10

Quick one: Plant response rating, Corn for O=C1C(n2ccc(C3CCC3)n2)SCN1c1cccc(OC(F)(F)F)c1 (stereo not drawn) ?
0

----------
Test system: soybean (Glycine max)
Assay: Test C postemergence
Type: in vivo
Conditions: Rate 250 g/ha, scale 0 to 100 (0 no effect, 100 complete control)
Consider the cut-off 70. If the recorded Plant response rating, Soybean is strictly smaller, the label is T; if not, the label is F.

Is the reported Plant response rating, Soybean for CCC(CC)c1ccn(C2SCN(c3cccc(C(F)(F)F)c3)C2=O)n1 (stereo not shown) strictly below 70?
T

Identify whether the compound COc1cc(N2CCC(n3ccc(C(C)(C)C)n3)C2=O)ccc1Cl (stereo not shown) records Plant response rating, Soybean below 70.
F

In the record for CC(C)(C)c1ccn(C2SCN(c3cccc(OC(F)F)c3)C2=O)n1 (stereo not shown) , is Plant response rating, Soybean less than 70?
T

State whether 70 exceeds Plant response rating, Soybean recorded for CCC(C)c1ccn(C2CCN(c3ccc(Cl)c(OC)c3)C2=O)n1 (stereo not shown) .
F

Determine whether this compound shows Plant response rating, Soybean lower than 70 (ties excluded): CCC(C)c1ccn(C2CCN(c3ccc(Br)c(OC)c3)C2=O)n1 (stereo not shown)
F

Strictly below 70: is that where Plant response rating, Soybean of O=C1C(n2ccc(C3CCC3)n2)SCN1c1cccc(OC(F)(F)F)c1 (stereo not shown) sits?
T

----------
System: common ragweed (Ambrosia elatior)
Assay: Test C preemergence
Assay type: in vivo
Conditions: Rate 125 g/ha; scale 0 to 100, 0 no effect, 100 complete control
VALUE TYPE: Plant response rating, Ragweed, Common
One number for each entry.

CSc1cccc(N2CCC(n3ccc(C(C)(C)C)n3)C2=O)c1 (centres unmarked) :: 0
CCCC(C)c1ccn(C2OCN(c3cccc(C(F)(F)F)c3)C2=O)n1 (centres unmarked) :: 0

For each of the compounds below, note its Plant response rating, Ragweed, Common.
1. CC(C)(C)c1ccn(C2CCN(c3ccc(F)c(Br)c3)C2=O)n1 (centres unmarked)
2. COC(=O)c1cccc(N2CCC(n3ccc(C(C)(C)C)n3)C2=O)c1 (centres unmarked)
3. Cc1ccc(N2CCC(n3ccc(C(C)(C)C)n3)C2=O)cc1I (centres unmarked)
4. CCC(CC)c1ccn(C2CCN(c3ccc(Br)c(OC)c3)C2=O)n1 (centres unmarked)
5. CCC(C)Oc1cccc(N2CCC(n3ccc(C(C)(C)C)n3)C2=O)c1 (centres unmarked)
6. CCC(CC)c1ccn(C2CCN(c3ccc(F)c(C(F)(F)F)c3)C2=O)n1 (centres unmarked)

0
80
0
100
0
0
